assay: Plasma and brain tumor concentration in mice bearing intracranial CR^2518 tumors (LC/MS/MS); assay type: in vivo; conditions: female, BALB/c nude, mouse, plasma, single IV dose 30 mg/kg, mice bearing CR^2518 brain tumors, read-out: plasma concentration
Parameter measured: concentration at 5 h (ng/mL)

1. CCC1(C(=O)NC(C)C)CCN(c2ccc(-c3nc(-c4cnn([C@H]5CC[C@H](N6CCC(c7ccc(NC8CCC(=O)NC8=O)cc7F)CC6)CC5)c4)cn4ncc(C#N)c34)cn2)CC1 (single isomer, unassigned)	1720

----------
Molecular target: RET(KD: 658-1114 G810R) (Homo sapiens, UniProt P07949, G810R)
Construct: 658-1114; expressed in transfected cells; host or cells: 293T.165 (293T cells, generated in-house)
Sequence (P07949 658-1114 G810R): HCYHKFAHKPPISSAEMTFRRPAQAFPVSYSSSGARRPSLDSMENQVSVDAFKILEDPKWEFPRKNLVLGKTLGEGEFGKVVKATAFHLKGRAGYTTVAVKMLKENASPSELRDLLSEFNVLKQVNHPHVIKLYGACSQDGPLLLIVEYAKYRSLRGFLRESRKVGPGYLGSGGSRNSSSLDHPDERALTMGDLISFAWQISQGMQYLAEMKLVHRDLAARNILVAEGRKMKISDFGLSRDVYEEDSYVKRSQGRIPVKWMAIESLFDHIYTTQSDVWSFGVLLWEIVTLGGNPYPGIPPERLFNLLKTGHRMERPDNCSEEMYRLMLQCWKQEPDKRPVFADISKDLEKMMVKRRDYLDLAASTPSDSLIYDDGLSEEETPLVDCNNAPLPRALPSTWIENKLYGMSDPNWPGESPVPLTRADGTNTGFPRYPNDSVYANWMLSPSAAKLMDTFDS
Assay: HiBiT-Degradation, RET G810R degradation assay (Nano-Glo HiBiT Lytic), 293T.165 cells
Assay type: cell-based
Settings: 6.0 hours, half-maximal degradation concentration, read-out: 293T.165 RET(KD: 658-1114 G810R) 6.0 hours (DC50)
Protocol: Dulbecco's modified Eagle medium (DMEM) no-phenol red media and fetal bovine serum (FBS) were purchased from Gibco (Grand Island, NY, USA). […] RET wild-type (WT) and G810R degradation were assessed using the Nano-Glo® HiBiT Lytic assay (Promega, Medison, WI, USA). […] Luminescence signal was measured using an EnVision™ Multimode plate reader (Perkin Elmer, Santa Clara, CA, USA). […]
Some molecules, each annotated with its measured DC50.
Parameter measured: DC50

1. CC(C)NC(=O)C1(C)CCN(c2ccc(-c3cc(-c4ccc(N5CCN(C(=O)CC6(O)CCN(c7ccc(NC8CCC(=O)NC8=O)cc7F)CC6)CC5)cc4)cn4ncc(C#N)c34)cn2)CC1 (stereo not drawn)	< 50 nM
2. CCC1(C(=O)NC2CCC2)CCN(c2ccc(-c3nc(-c4cnn([C@H]5C[C@](F)(CN6CCN(c7ccc(N[C@@H]8CCC(=O)NC8=O)cc7F)CC6)C5)c4)cn4ncc(C#N)c34)cn2)CC1	< 50 nM
3. C[C@H](c1ccccn1)N1CCN(c2ccc(-c3nc(-c4cnn(C5CCN(C(=O)CC6(O)CCN(c7ccc(NC8CCC(=O)NC8=O)cc7F)CC6)CC5)c4)cn4ncc(C#N)c34)cn2)CC1 (stereo partly drawn)	< 50 nM

----------
target: RET (658-1114) (Homo sapiens); construct: 658-1114; expressed in transfected cells; host or cells: 293T.144 (293T cells, generated in-house); test: HiBiT-Degradation, RET wild-type degradation assay (Nano-Glo HiBiT Lytic), 293T.144 cells; format: cell-based; conditions: HiBiT-Degradation, 6.0 hours, read-out: 293T.144 RET (658-1114) 6.0 hours (DC50)
Sequence (P07949 658-1114): as the sequence (P07949 658-1114 G810R) above, with R153G counted along it
Parameter measured: DC50

1) N#Cc1cnn2cc(-c3cnn(C4CCN(C(=O)CN5CCC(c6ccc(NC7CCC(=O)NC7=O)cc6F)CC5)CC4)c3)nc(-c3ccc(N4CCN(C(=O)Cc5ccc(F)cn5)CC4)nc3)c12 (stereo not drawn)	< 50 nM
2) C[C@H](c1ccccn1)N1CCN(c2ccc(-c3nc(-c4cnn(C5CCN(C(=O)CC6(O)CCN(c7ccc(NC8CCC(=O)NC8=O)cc7F)CC6)CC5)c4)cn4ncc(C#N)c34)cn2)CC1 (stereo partly drawn)	< 50 nM
3) CCC1(C(=O)NC(C)C)CCN(c2ccc(-c3cc(-c4ccc(N5CCN(C(=O)CN6CCC(c7ccc8c(N9CCC(=O)NC9=O)nn(C)c8c7)CC6)CC5)cc4)cn4ncc(C#N)c34)cn2)CC1	< 50 nM
